# Experimental system: Death-associated protein kinase 3 (Homo sapiens) (UniProt O43293)
# Sequence (O43293 whole entry, looked up): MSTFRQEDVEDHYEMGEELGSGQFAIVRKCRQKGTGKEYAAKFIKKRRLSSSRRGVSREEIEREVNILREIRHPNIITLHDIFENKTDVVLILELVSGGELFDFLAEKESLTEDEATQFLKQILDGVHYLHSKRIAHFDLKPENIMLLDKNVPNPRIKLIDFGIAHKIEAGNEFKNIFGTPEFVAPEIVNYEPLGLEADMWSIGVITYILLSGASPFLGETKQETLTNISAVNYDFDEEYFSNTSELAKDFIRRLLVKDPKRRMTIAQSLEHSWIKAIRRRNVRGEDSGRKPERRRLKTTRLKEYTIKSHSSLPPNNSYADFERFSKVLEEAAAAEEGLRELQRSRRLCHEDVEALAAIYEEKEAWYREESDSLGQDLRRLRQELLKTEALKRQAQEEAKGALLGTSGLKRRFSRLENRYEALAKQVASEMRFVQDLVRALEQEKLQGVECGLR
# Condition summary: at 1 µM
Readout kind: residual activity (%)

| Structure string | Unit string | Reported |
| --- | --- | --- |
| COc1ccc(OC)c2c(=S)c3ccccc3[nH]c12 | % | 93 |
| CO[C@H]1C[C@@H]2CC[C@@H](C)[C@@](O)(O2)C(=O)C(=O)N2CCCC[C@H]2C(=O)O[C@H]([C@H](C)C[C@@H]2CC[C@@H](O)[C@H](OC)C2)CC(=O)[C@H](C)/C=C(\C)[C@@H](O)[C@@H](OC)C(=O)[C@H](C)C[C@H](C)/C=C/C=C/C=C/1C | % | 116 |
| COc1cc2ncnc(Nc3ccc(O)c(Br)c3)c2cc1OC | % | 83 |
| NC(=O)c1ccc2[nH]c(-c3ccc(Oc4ccc(Cl)cc4)cc3)nc2c1 | % | 92 |

Hey, just so you know, these numbers are from ChEMBL document CHEMBL2218924.
